B1: Glucocorticoid receptor, residues 419 to 494; numbered along this chain, P04150 (parent)
chain: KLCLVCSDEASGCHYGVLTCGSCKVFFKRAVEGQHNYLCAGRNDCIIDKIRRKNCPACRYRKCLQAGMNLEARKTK

Variants of: B1
Assay: abundance fitness (aPCA) (normalised: wild type 0, dead -1); higher = more abundant; growth selection in yeast, the domain comes from the species named
Conditions: Homo sapiens

>  <variant.identifier>
H14M

>  <abundance fitness>
-0.163

$$$$
>  <variant.identifier>
M68W

>  <abundance fitness>
-0.846

$$$$
>  <variant.identifier>
I46P

>  <abundance fitness>
-0.048

$$$$
